# assayExplanation: In vitro peptide stability in human serum (RP-HPLC)
# studyConditions: human, human serum, 25% (v/v) in RPMI
Square brackets hold non-standard residues; d marks the D form. Peptide text beside a SMILES is read from it.
half-life at 50 µg/mL values by entry
Supply the numeric figure in h, leaving out any unit text.

For orientation, consider the following solved cases.
CC(C)C[C@H](NC(=O)[C@@H](N)CCC(N)=O)C(=O)N1CCC[C@H]1C(=O)NCC(=O)N[C@@H](CCC(N)=O)C(=O)N[C@@H](Cc1ccccc1)C(=O)N[C@@H](C)C(=O)N[C@H](Cc1ccccc1)C(=O)N[C@@H](Cc1ccccc1)C(=O)O [compound 71] (H-QLPGQFA[dF]F-OH; N-terminus assumed) ... 0.517
CC(C)C[C@H](NC(=O)[C@@H](N)CC(C)C)C(=O)N[C@@H](Cc1ccc(O)cc1)C(=O)N[C@H](Cc1c[nH]c2ccccc12)C(=O)N1CCC[C@H]1C(=O)N[C@@H](Cc1ccc(O)cc1)C(=O)N[C@@H](C)C(=O)N[C@@H](CCCCN)C(=O)N[C@H](CO)C(=O)O [compound 144] (H-LLY[dW]PYAK[dS]-OH; N-terminus assumed) ... 1.35

The compound identified as CC(C)C[C@H](NC(=O)[C@@H]1CCCN1C(=O)[C@@H]1CCCN1)C(=O)N[C@H](Cc1c[nH]c2ccccc12)C(=O)N[C@@H](CCC(N)=O)C(=O)N[C@@H](Cc1ccc(O)cc1)C(=O)N[C@@H](C)C(=O)N[C@H](CC(=O)O)C(=O)N[C@H](CO)C(=O)O [compound 153] (H-PPL[dW]QYA[dD][dS]-OH; N-terminus assumed) registered its half-life at 50 µg/mL at 1.43
